Entry source: paper PMC4336329

I'd appreciate it if you could supply hERG current change (%, negative = inhibition) at 10uM values for the items below.
molecular target: human ether-à-go-go-related gene (hERG) potassium channel (human, UniProt Q12809); assay: primary screen, population patch clamp on CHO cells stably expressing hERG; higher = less effect of the substance;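 note: peak tail current of the secondary pulse compared with the same well before compound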
Sequence (Q12809 whole entry, looked up): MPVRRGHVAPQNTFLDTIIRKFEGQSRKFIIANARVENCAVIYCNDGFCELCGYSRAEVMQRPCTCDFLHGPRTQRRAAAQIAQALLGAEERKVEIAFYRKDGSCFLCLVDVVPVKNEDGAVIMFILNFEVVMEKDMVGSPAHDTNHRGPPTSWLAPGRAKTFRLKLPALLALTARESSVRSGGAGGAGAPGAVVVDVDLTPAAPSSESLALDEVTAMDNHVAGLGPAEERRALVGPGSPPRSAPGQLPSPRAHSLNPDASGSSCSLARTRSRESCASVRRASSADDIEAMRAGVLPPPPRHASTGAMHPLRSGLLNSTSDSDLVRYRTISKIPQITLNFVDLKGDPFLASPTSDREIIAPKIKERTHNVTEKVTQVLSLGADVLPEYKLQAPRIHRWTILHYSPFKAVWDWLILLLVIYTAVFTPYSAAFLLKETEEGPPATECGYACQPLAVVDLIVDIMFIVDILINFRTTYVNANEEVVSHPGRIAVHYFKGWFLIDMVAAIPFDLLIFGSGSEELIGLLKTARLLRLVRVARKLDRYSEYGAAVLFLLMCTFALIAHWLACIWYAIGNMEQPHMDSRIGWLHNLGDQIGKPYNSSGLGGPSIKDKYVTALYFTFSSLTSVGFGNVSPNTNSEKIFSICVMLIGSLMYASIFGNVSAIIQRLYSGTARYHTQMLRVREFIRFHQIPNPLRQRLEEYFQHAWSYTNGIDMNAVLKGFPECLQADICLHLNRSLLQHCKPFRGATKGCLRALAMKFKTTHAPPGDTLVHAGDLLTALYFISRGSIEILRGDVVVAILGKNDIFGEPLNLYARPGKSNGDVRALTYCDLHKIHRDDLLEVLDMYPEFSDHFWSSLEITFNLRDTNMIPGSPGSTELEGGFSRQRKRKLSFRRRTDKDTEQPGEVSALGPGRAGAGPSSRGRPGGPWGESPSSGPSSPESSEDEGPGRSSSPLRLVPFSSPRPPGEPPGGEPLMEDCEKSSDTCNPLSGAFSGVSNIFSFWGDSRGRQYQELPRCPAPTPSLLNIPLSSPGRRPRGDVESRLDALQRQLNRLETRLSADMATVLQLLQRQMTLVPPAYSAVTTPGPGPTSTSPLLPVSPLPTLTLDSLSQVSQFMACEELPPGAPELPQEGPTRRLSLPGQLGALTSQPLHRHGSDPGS
In all, about 310,000 compounds went through this assay and about 14,000 (4.5%) showed an effect of 50% or more. The effect is printed as a negative number. The sample as a whole holds a higher share of strong results than the screen did.
Provide only the numeric value, understood in %.

Q: Look up hERG current change (%, negative = inhibition) at 10uM: CCOC(=O)N1CCN(Cc2nc3cc(NC(=O)c4ccco4)ccc3n2C)CC1
A: -26.5

Q: Look up hERG current change (%, negative = inhibition) at 10uM: CC(=O)N1CCN(Cc2nc3cc(NC(=O)c4cccs4)ccc3n2C)CC1
A: 13.8

Q: Look up hERG current change (%, negative = inhibition) at 10uM: Cc1nnc(NC(=O)CN2CCN(Cc3ccccc3Cl)CC2)s1
A: 6.08

Q: Look up hERG current change (%, negative = inhibition) at 10uM: CCOC(=O)N1CCN(Cc2nc3cc(NC(=O)c4cccs4)ccc3n2C)CC1
A: -74.7

Q: Look up hERG current change (%, negative = inhibition) at 10uM: Cn1c(CN2CCCCC2)nc2cc(NC(=O)c3cccs3)ccc21
A: -31.2

Q: Look up hERG current change (%, negative = inhibition) at 10uM: CCOC(=O)N1CCN(Cc2nc3cc(NC(=O)c4cccs4)ccc3n2CC)CC1
A: -55.3

Q: Look up hERG current change (%, negative = inhibition) at 10uM: CCOC(=O)C(NC(=O)C1CCCN1C(=O)OCc1ccccc1)C(=O)OCC (stereo not shown)
A: -0.938

Q: Look up hERG current change (%, negative = inhibition) at 10uM: CCn1c(CC(=O)Nc2ccccc2F)nnc1SCC(=O)Nc1nnc(C)s1
A: -22.2

Q: Look up hERG current change (%, negative = inhibition) at 10uM: CCOC(=O)N1CCN(Cc2nc3cc(NC(=O)c4ccco4)ccc3n2CC)CC1
A: -58

Q: Look up hERG current change (%, negative = inhibition) at 10uM: O=c1c2ccccc2[nH]c(=S)n1-c1ccc2c(c1)OCO2
A: 13.1
